Target: T1, human IL-12 (human, UniProt P29460 23-328; P29459 23-219)
T1 construct: Recombinant (Peprotech); FLAG-tagged IL-12 in the flow cytometry assays, biotinylated in the IL-12Rβ2 assay; also called hIL-12
T1 sequence 1: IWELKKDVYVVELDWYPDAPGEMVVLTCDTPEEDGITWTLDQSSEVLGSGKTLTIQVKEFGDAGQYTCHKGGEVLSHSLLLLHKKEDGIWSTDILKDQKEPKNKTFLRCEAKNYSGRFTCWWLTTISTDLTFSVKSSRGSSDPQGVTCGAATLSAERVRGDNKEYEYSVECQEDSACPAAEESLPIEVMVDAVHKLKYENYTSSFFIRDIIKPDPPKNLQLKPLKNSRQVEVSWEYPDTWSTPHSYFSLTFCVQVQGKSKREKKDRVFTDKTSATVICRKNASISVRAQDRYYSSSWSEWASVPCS
T1 sequence 2: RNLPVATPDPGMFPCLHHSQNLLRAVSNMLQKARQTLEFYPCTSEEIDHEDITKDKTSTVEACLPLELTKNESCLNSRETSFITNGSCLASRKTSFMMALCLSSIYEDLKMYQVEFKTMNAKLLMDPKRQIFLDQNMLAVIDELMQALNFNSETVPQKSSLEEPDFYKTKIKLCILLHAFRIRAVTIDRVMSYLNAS
Experiment: SPR, IgG on Protein A
Description: Using SPR technology the kₐ and kd and the KD of various humanized antibodies was determined. Using a SPR 3000, Protein A was immobilized onto FC1 and FC2 (or alternatively FC3 and FC4) of a CM5 research grade sensor chip using amine coupling, giving approximately […] RU. FC1 was used a blank throughout the experiments. The experiments were run in HBS-P buffer (SPR). At a flow rate of 20 μl/min, 20 μl of 5 μg/mL of antibody was passed over FC2. […]
measure: koff (s⁻¹)
Could you give me the number in s⁻¹? Just the number is fine.

Antibody 198 (antibody, human IgG1, kappa, V domains shown) VH: QVQLVQSGAEVKKPGASVKVSCKASGYAFTDYYLHWVRQAPGQGLEWMGWIDPENGDTEYAPKFQGRVTMTTDTSTSTAYMELRSLRSDDTAVYYCAANKELRYFDVWGQGTMVTVSS VL: DIQMTQSPSSVSASVGDRVTITCRASQSISINLHWYQQKPGKAPKLLIYFASQSISGVPSRFSGSGSGTDFSLTINSLQTEDFATYYCQQSNSFPLTFGGGTKVEIKR | 0.000594
Antibody 190 (antibody, human IgG1, kappa, V domains shown) VH: QVQLVQSGAEVKKPGASVKVSCKASGYTFTDYYLHWVRQAPGQGLEWMGWIDPENGDTEYAPKFQGRVTMTTDTSTSTAYMELRSLRSDDTAVYYCNANKELRYFDVWGQGTMVTVSS VL: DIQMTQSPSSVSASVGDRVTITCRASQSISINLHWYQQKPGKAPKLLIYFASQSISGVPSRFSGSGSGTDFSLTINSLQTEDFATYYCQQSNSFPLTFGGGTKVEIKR | 0.00084
Antibody 181 (antibody, human IgG1, kappa, V domains shown) VH: EVQLVQSGAEVKKPGATVKISCKASGYTFSDYYLHWVRQAPEKGLEWMGWIDPENGDTEHAPKFQGRVTITADTSTDTGYLELSSLRSEDTAVYYCAANKELRYFDVWGQGTLVTVSS VL: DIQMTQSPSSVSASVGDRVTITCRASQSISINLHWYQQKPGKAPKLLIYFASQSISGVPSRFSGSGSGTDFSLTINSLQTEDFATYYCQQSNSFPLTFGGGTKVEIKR | 0.000244

Q: Specify measured koff for Antibody 195 (antibody, human IgG1, kappa, V domains shown) VH: QVQLVQSGAEVKKPGASVKVSCKASGYTFTDYYLHWVRQAPGQGLEWMGWIDPENGDTEHAPKFQGRVTMTTDTSTSTAYMELRSLRSDDTAVYYCAANKELRYFDVWGQGTMVTVSS VL: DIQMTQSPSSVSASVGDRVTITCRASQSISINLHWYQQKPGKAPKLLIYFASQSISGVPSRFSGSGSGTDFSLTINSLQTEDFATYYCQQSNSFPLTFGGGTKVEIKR .
Result: 0.000274
